Measured Average Cell Viability after 24 Hours (% DMSO), listed per entry for reference.
tested on: viable cells in culture; test: Cell viability assay (CellTiter-Glo Luminescent Cell Viability Assay, ATP quantitation, percent of vehicle control)
Result type: Average Cell Viability after 24 Hours (% DMSO)

In [3]: df
Out[3]:
                                    compound                   system  numeric_readout
 0  CC1CCc2c(sc(NC(=O)c3cccnc3)c2C(=O)Nc2cccc(Cl)c2)C1 (centres unmarked)  viable cells in culture            58.86
 1  O=C(Nc1nc(-c2ccccn2)cs1)c1ccc(-c2nc3ccccc3s2)s1  viable cells in culture            12.76
 2  O=C(NC(c1ccccc1)c1ccc2cccnc2c1O)c1ccccc1 (centres unmarked)  viable cells in culture            56.53
 3             CCc1c(C)nn(-c2nc3ccccc3s2)c1O  viable cells in culture            89.40
 4  COc1cc(C(Nc2ccccn2)c2ccc3cccnc3c2O)cc(Br)c1OC (centres unmarked)  viable cells in culture            64.80
 5                 CCN(CC)Cc1ccc(O)c2ncccc12  viable cells in culture            67.13
 6     CN1CCN(CCCNC(=O)c2cc(-c3cccs3)on2)CC1  viable cells in culture            98.72
 7  O=c1cc(Cc2ccccc2)[nH]c2c(-c3ccccc3)c(-c3ccccc3)nn12  viable cells in culture            88.31
 8  O=C(O)c1ccc(NC(=S)NC(=O)c2cccc3ccccc23)cc1  viable cells in culture            74.00
 9  COc1ccc(C(=O)NC(/C=C/c2ccccc2)c2cc(Cl)c3cccnc3c2O)cc1 (centres unmarked)  viable cells in culture            42.84
10              Cc1noc(-c2cc(Br)cc(Br)c2O)n1  viable cells in culture            67.76
11  O=C(CCc1ccccc1)NC(c1ccc2c(c1)OCO2)c1ccc2cccnc2c1O (centres unmarked)  viable cells in culture            61.72
12  Cn1cc(C(=O)N/N=C/c2c(O)ccc3ccccc23)ccc1=O  viable cells in culture            57.10
13  Cc1ccccc1NC(=O)C1CC(Cl)=CCC1C(=O)O (centres unmarked)  viable cells in culture           107.65
